Examples of compounds with documented inhibition at 64 µg/mL follow.
Target: ClpP (Staphylococcus aureus, UniProt Q2G036)
Construct: pET28a-clpP, purified from E. coli BL21(DE3)
Sequence (Q2G036 whole entry): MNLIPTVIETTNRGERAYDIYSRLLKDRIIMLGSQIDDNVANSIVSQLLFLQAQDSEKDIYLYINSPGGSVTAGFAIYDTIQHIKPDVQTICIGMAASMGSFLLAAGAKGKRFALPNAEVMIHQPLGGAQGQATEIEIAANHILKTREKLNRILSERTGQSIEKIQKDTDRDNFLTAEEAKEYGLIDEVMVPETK
Assay: biochemical
Conditions: read-out: Relative inhibition rate (%)
metric: inhibition at 64 µg/mL (%)

1) CCC1=C[C@@H]2CN3CCc4c([nH]c5ccccc45)[C@@](C(=O)OC)(C2)[C@@H]13 = 10.3
2) O=C1C[C@@H](c2ccc(O[C@@H]3O[C@H](CO)[C@@H](O)[C@H](O)[C@H]3O)cc2)Oc2cc(O)ccc21 = 3.2
3) C[C@@H]1C(=O)O[C@H](C)[C@H]1C[C@@H](O)[C@](C)(O)[C@H]1CC[C@@]2(O)C3=CC(=O)[C@@H]4C[C@@H](O)[C@@H](O)C[C@]4(C)[C@H]3CC[C@]12C = 25.6
4) COc1ccc(C(C)=O)c(O)c1 = 26.7
5) O=C1C[C@@H](c2ccc(O)cc2)Oc2cc(O)cc(O)c21 = 8.2
6) COc1cc(O)c2c(=O)cc(-c3ccccc3)oc2c1 = 7.1
7) O=C(/C=C/c1ccc(O)cc1)OC[C@H]1O[C@@H](Oc2c(-c3ccc(O)cc3)oc3cc(O)cc(O)c3c2=O)[C@H](O)[C@@H](O)[C@@H]1O [Tiliroside] = 3.6

---

Biological target: ClpP (Staphylococcus aureus, UniProt Q2G036);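 further: ClpP peptidase activity measured as fluorescence (ex 360 nm, em 465 nm) from cleavage of Suc-LY-AMC substrate at 100 µM, 30 min at 32°C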
Construct: pET28a-clpP, purified from E. coli BL21(DE3)
Assay: biochemical
Details: read-out: Relative inhibition rate (%)
Examples of compounds with documented inhibition at 64 µg/mL follow.
metric: inhibition at 64 µg/mL (%)

1) O=C(CCc1ccc(O)cc1)c1c(O)cc(O)cc1O[C@@H]1O[C@H](CO)[C@@H](O)[C@H](O)[C@H]1O = 5.3
2) CC(C)=CC[C@@H](O)C1=CC(=O)c2c(O)ccc(O)c2C1=O = 13.4
3) COc1ccc(-c2oc3c(CC=C(C)C)c(O[C@@H]4O[C@H](CO)[C@@H](O)[C@H](O)[C@H]4O)cc(O)c3c(=O)c2O[C@@H]2O[C@@H](C)[C@H](O)[C@@H](O)[C@H]2O)cc1 = 34.6
4) COc1ccc(-c2cc(=O)c3c(O)cc(O)cc3o2)cc1O = 6.1
5) O=C(O)[C@H]1O[C@@H](Oc2cc(O)c3c(=O)cc(-c4ccc(O)c(O)c4)oc3c2)[C@H](O)[C@@H](O)[C@@H]1O [luteolin-7-glucuronide] = 47.1
6) CC(C)c1ccc2c(c1O)CC[C@H]1C3=C(CC[C@]21C)C(=O)OC3 [Triptophenolide] = 20.8
7) O=c1c(O[C@@H]2O[C@@H](CO)[C@H](O)[C@H]2O)c(-c2ccc(O)c(O)c2)oc2cc(O)cc(O)c12 = 46
8) C[C@@H]1CC[C@H]2[C@@H](C)C(=O)O[C@@H]3O[C@@]4(C)CC[C@@H]1[C@]32OO4 = 4.9
9) C=C(C)[C@H](CC=C(C)C)Cc1c(O)cc(O)c2c1O[C@H](c1ccc(O)cc1O)CC2=O = 83.3
10) COc1c(O)cc(O)c2c(=O)cc(-c3ccccc3)oc12 = 35.4
11) COc1ccc([C@@H]2CC(=O)c3c(O)cc(O[C@@H]4O[C@H](CO[C@@H]5O[C@@H](C)[C@H](O)[C@@H](O)[C@H]5O)[C@@H](O)[C@H](O)[C@H]4O)cc3O2)cc1 = 31.2
12) CC(C)(C)[C@]1(O)C[C@@H]2OC(=O)C[C@@]23C(=O)O[C@@H]2OC(=O)[C@H](O)[C@]213 [Bilobalide] = 17.4
13) C[C@H]1CC[C@@]2(OC1)O[C@H]1C[C@H]3[C@@H]4CC[C@@H]5C[C@@H](O)CC[C@]5(C)[C@H]4CC[C@]3(C)[C@H]1[C@@H]2C = 7.8
14) COc1ccc(-c2cc(=O)c3c(OC)c(OC)c(OC)c(OC)c3o2)cc1 = 41.2
15) COc1cc(OC)c(CCC(=O)c2ccc(O)cc2)c(OC)c1 = 29.8

These measurements were taken from paper PMC9045277.
